The reported numbers originate from patent EP1148124A1.

# Method: Reporter assay (No. 2), cell number reporter gene (sea pansy luciferase, pRL-TK), clone of Example 3
# Format: cell-based
# Reported conditions: mouse, hepa1c1c7 cells

Item smiles	viability at 6 h, 0.01 µM (%)
C[C@@H]1C[C@H]2[C@@H]3CCC4=CC(=O)C=C[C@]4(C)[C@@]3(F)[C@@H](O)C[C@]2(C)[C@@]1(O)C(=O)CO	100

###

# Method: Reporter assay (No. 1), cell number reporter gene (sea pansy luciferase, pRL-TK), clone of Example 2
# Type: cell-based
# Reported conditions: mouse, hepa1c1c7 cells, final conc. 0.2 pg/ml; about 40 hours; ratio to 0 pg/ml; read-out: Amount of luminescence by sea pansy luciferase (from pRL-TK) Ratio
Attribute measured: viability at 40 h (%)

Item smiles	Attribute measured	Observed result
Clc1cc2c(cc1Cl)Oc1cc(Cl)c(Cl)cc1O2	viability at 40 h	90

###

# Method: Reporter assay (No. 2), cell number reporter gene (sea pansy luciferase, pRL-TK), clone of Example 3
# Type: cell-based
# Reported conditions: mouse, hepa1c1c7 cells

Item smiles	viability at 6 h, 0.1 µM
C[C@@H]1C[C@H]2[C@@H]3CCC4=CC(=O)C=C[C@]4(C)[C@@]3(F)[C@@H](O)C[C@]2(C)[C@@]1(O)C(=O)CO	90%

###

# Method: Reporter assay (No. 1), cell number reporter gene (sea pansy luciferase, pRL-TK), clone of Example 2
# Assay type: cell-based
# Reported conditions: mouse, hepa1c1c7 cells, final conc. 2000 pg/ml; about 40 hours; ratio to 0 pg/ml; read-out: Amount of luminescence by sea pansy luciferase (from pRL-TK) Ratio
Attribute measured: viability at 40 h (%)

Item smiles	Attribute measured	Observed result
Clc1cc2c(cc1Cl)Oc1cc(Cl)c(Cl)cc1O2	viability at 40 h	60

###

# Method: Reporter assay (No. 1), cell number reporter gene (sea pansy luciferase, pRL-TK), clone of Example 2
# Format: cell-based
# Reported conditions: mouse, hepa1c1c7 cells, final conc. 200 pg/ml; about 40 hours; ratio to 0 pg/ml; read-out: Amount of luminescence by sea pansy luciferase (from pRL-TK) Ratio
Attribute measured: viability at 40 h (%)

Item smiles	Attribute measured	Observed result
Clc1cc2c(cc1Cl)Oc1cc(Cl)c(Cl)cc1O2	viability at 40 h	70
